- System: SK-MEL-5
- protocol: NCI tumour cell line growth inhibition, 48 h
Calls of active or inactive are those of the source. Cut-off read from the data, not from the text of the source: active = GI50 up to about 1.1 µM and inactive = higher.
Outcome codes: true for active, false for inactive

[[record]]
compound = "O=C(CC(=O)c1ccccc1)c1ccccc1.O=C(CC(=O)c1ccccc1)c1ccccc1.O=C(CC(=O)c1ccccc1)c1ccccc1.[SiH4]"
assigned_label = "false"

[[record]]
compound = "Clc1ccccc1/C=C/c1ccnc2ccccc12"
assigned_label = "false"

[[record]]
compound = "CC1(C)CC(=O)C(/C(=N/NC(=S)NN)C(=O)Nc2nc3ccc([N+](=O)[O-])cc3s2)C(=O)C1"
assigned_label = "false"

[[record]]
compound = "CC(=O)Oc1ccc(N2C(=O)C3c4[nH]c5ccccc5c4C4CCC(C(C)(C)C)CC4C3C2=O)cc1 (stereo not given)"
assigned_label = "false"

[[record]]
compound = "CC1(C)CC2=C(Sc3ccccc3N2)C(=O)C1C(=O)C(=O)Nc1cccc([N+](=O)[O-])c1 (stereo not given)"
assigned_label = "false"

[[record]]
compound = "CC1=C(C)CC2(CCCCC2=O)[S+]([O-])C1 (stereo not given)"
assigned_label = "false"

[[record]]
compound = "N#Cc1ccccc1NC(=O)C(=O)c1c(O)c2ccccc2oc1=O"
assigned_label = "false"

[[record]]
compound = "COc1ccc(C2SCC(=O)N2NC(=O)c2ccc(NC(C)=O)cc2)c(OC)c1 (stereo not given)"
assigned_label = "false"

[[record]]
compound = "CN(C)/C=C/c1nnc([N+](=O)[O-])s1"
assigned_label = "false"

[[record]]
compound = "COc1ccc(OC(C(=O)O)C(C)C)c2c1CCCC2=O (stereo not given)"
assigned_label = "false"

[[record]]
compound = "CC(=O)NC1=C(OS(=O)(=O)c2ccc(C)cc2)CN(C)C1=O"
assigned_label = "false"

[[record]]
compound = "COc1cc2c3c(c4cc(OC)c(OC)cc4c2cc1OC)C(=O)C1CCC(=O)N1C3 (stereo not given)"
assigned_label = "false"

[[record]]
compound = "O=C1Nc2ccc(Br)cc2/C1=N/NC(=S)Nc1ccc(F)cc1"
assigned_label = "false"

[[record]]
compound = "Nc1cc2c(c3ccccc13)C(CCl)CN2C(=O)c1cc2cc(NC(=O)Nc3ccc4[nH]c(C(=O)N5CC(CCl)c6c5cc(N)c5ccccc65)cc4c3)ccc2[nH]1 (stereo not given)"
assigned_label = "true"

[[record]]
compound = "N=C(N)SCc1ccc(Cl)cc1Cl.O=[N+]([O-])c1c(O)c(Cl)cc(Cl)c1Cl"
assigned_label = "false"

[[record]]
compound = "COc1ccc(N2C(=O)[C@@H]3[C@@H]4CC(C)CC[C@@H]4c4c([nH]c5ccccc45)[C@@H]3C2=O)cc1 (stereo not given in full)"
assigned_label = "false"

[[record]]
compound = "CCOC(=O)/C=C(\\C(=O)OCC)n1ccc(=O)n(CC(=O)OCC)c1=O"
assigned_label = "false"

[[record]]
compound = "O=C(CCC(=O)C1CCC/C1=N/O)Nc1ccc(Cl)cc1 (stereo not given)"
assigned_label = "false"

[[record]]
compound = "O=C1CCCc2cc3c(cc21)CC1(Cc2ccccc2C1)C3"
assigned_label = "false"

[[record]]
compound = "OC12COc3ccccc3C1Oc1ccccc1C2 (stereo not given)"
assigned_label = "false"


Reference source: ChEMBL document CHEMBL1201862
